Test system: Fibroblast
Assay: Multiplex assay against human fibroblast
Assay type: toxicity, cell-based
Conditions: 12 h, 1 µM, compound concentration 1 uM, replicate 1
Label Not fulfilled if Population Apoptotic (%) falls below 60%; label Fulfilled in every other case.

Here are 4 compounds together with their reported answers.
Cc1nc(Nc2n[nH]c3c2CN(C(=O)N[C@H](CN(C)C)c2ccccc2)C3(C)C)c2sccc2n1    Fulfilled
COc1cccc([C@@H](C)NCCCc2ccccc2Cl)c1.Cl [TECALCET HYDROCHLORIDE]    Not fulfilled
NC(=O)Nc1cc(-c2cccc(F)c2)sc1C(=O)N[C@H]1CCCNC1    Fulfilled
C=CC(=O)Nc1ccc2ncnc(Nc3ccc(OCc4cccc(F)c4)c(Cl)c3)c2c1.Cc1ccc(S(=O)(=O)O)cc1    Not fulfilled

*Q* Check the entry Cc1nc(-c2cn3c(n2)-c2ccc(-c4cnn(C(C)(C)C(N)=O)c4)cc2OCC3)n(C(C)C)n1 : does Population Apoptotic (%) equal or exceed 60%?
*A* Fulfilled

*Q* Check the entry C=CC(=O)Nc1cccc(C(=O)Nc2ccc(Nc3cc(-c4[nH]c(SC)nc4C)ccn3)cc2)c1 : does Population Apoptotic (%) equal or exceed 60%?
*A* Fulfilled

*Q* Check the entry Cc1[nH]c(/C=C2\C(=O)Nc3ccc(S(=O)(=O)N(C)c4cccc(Cl)c4)cc32)c(C)c1C(=O)N1CCN(C)CC1 : does Population Apoptotic (%) equal or exceed 60%?
*A* Fulfilled

*Q* Check the entry Cc1c(-c2ccc(O)cc2)n(Cc2ccc(OCCN3CCCCCC3)cc2)c2ccc(O)cc12 : does Population Apoptotic (%) equal or exceed 60%?
*A* Fulfilled

====

System: HEK-293T
Assay: Incucyte cell viability with HEK293T; also: filed as whole numbers so only -1 and 0 and 1 occur
Type: toxicity, cell-based
Details: human, 6 h, 10 µM, compound concentration 10 uM, replicate number 1, timepoint 6 hours
// reported Growth Rate per item
Write the value as a bare number.

# molecule C[C@H](c1ccc(F)cc1)N(Cc1ccc(Cl)c(C(=O)O)c1)C(=O)c1cnc2ccccc2c1 [PF-05257137] ; its Growth Rate = 0

====

Test system: U2OS
Experiment: Incucyte cell viability with U2OS; also: filed as whole numbers so only -1 and 0 and 1 occur
Format: toxicity, cell-based
Settings: human, 12 h, 10 µM, compound concentration 10 uM, replicate number 2, timepoint 12 hours
// reported Growth Rate per item
Write the value as a bare number.

CCc1cc(C(C)=O)c(O)cc1OCCCCCC(C)(C)c1nn[nH]n1 [LY-255283]    0
Cl.N#Cc1ccc2[nH]cc(CCCCN3CCN(c4ccc5oc(C(N)=O)cc5c4)CC3)c2c1 [VILAZODONE HYDROCHLORIDE]    0
CS(=O)(=O)c1cccc(NC(=O)N(Cc2ccc(C(=O)Nc3nn[nH]n3)cc2)c2ccc(C3CCCCC3)cc2)c1    1
N#CC(Cc1ccc(O)cc1)c1ccc(O)cc1 (configuration not stated) [DIARYLPROPIONITRILE]    0
C[C@@]1(Cc2ccc(C#N)cc2)C(=O)N(c2cc(Cl)cc(Cl)c2)c2ncc(C(=O)NC3(c4nc(C5CCC5)no4)CC3)n21 [BI 9446]    0

# molecule CC(=O)OCC(=O)[C@@]1(O)CC[C@H]2[C@@H]3CCC4=CC(=O)CC[C@]4(C)[C@@]3(F)[C@@H](O)C[C@@]21C [FLUDROCORTISONE ACETATE] ; its Growth Rate = 1

# molecule Cc1csc2c(N[C@@H](C)CN3CCN(S(=O)(=O)c4ccc(Cl)c(Cl)c4)CC3)ncnc12 ; its Growth Rate = 0
